assay.target: APJ (Homo sapiens (Human))
Sequence (P35414 whole entry): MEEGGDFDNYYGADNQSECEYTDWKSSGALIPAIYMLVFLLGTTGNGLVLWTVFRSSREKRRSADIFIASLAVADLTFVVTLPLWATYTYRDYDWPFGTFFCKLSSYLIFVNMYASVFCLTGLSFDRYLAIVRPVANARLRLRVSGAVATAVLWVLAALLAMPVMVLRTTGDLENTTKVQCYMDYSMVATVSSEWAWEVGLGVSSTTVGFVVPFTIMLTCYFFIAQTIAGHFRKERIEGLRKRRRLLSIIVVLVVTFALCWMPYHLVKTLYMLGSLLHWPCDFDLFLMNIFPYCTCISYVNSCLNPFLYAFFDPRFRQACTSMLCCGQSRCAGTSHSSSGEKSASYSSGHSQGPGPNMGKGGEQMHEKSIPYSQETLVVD
experiment.summary: [35S]GTPγS binding assay on membranes from CHO cells stably expressing human APJ receptor
Assay type: biochemical
run.conditions: Activity hAPJ SPA EC50 IP (μM)
For each entry below, report its EC50 value.
Returns: string containing the numeric result and its unit.

[in] Data request, read-out EC50, for COc1cccc(OC)c1-n1c(NS(=O)(=O)[C@@H](C)[C@H](OC)c2ncnn2C)nnc1-c1cncc(C)c1 (single isomer, unassigned) [Example 781.0]
[out] 0.59 µM

[in] Data request, read-out EC50, for COc1cccc(-c2nnc(NS(=O)(=O)[C@@H](C)[C@H](OC(C)C)c3ncc(C)cn3)n2-c2c(OC)cccc2OC)n1 (single isomer, unassigned)
[out] 0.00026 µM

[in] Data request, read-out EC50, for COc1cccc(-c2nnc(NS(=O)(=O)[C@H](C)[C@@H](O)c3cc(C)n(C)n3)n2-c2c(OC)cccc2OC)n1 (racemic)
[out] 0.0024 µM

[in] Data request, read-out EC50, for COc1cccc(OC)c1-n1c(NS(=O)(=O)[C@@H](C)[C@H](OC)c2ccc(Cl)cn2)nnc1-c1cccnc1 (mixture of isomers)
[out] 0.00048 µM

[in] Data request, read-out EC50, for COc1cccc(-c2nnc(NS(=O)(=O)C[C@H](OC)c3ccc(F)cn3)n2-c2c(OC)cccc2OC)n1 (mixture of isomers)
[out] 0.00033 µM

[in] Data request, read-out EC50, for COc1cccc(-c2nnc(NS(=O)(=O)C[C@H](O)c3ccc(C#N)cn3)n2-c2c(OC)cccc2OC)n1 (mixture of isomers)
[out] 0.00024 µM
